Measured IC50 values are reported for all entries that follow.
# target_entity: SOS1 and KRAS G12D (Homo sapiens (Human))
# Sequence (Q07889 564-1049, stated change not applied): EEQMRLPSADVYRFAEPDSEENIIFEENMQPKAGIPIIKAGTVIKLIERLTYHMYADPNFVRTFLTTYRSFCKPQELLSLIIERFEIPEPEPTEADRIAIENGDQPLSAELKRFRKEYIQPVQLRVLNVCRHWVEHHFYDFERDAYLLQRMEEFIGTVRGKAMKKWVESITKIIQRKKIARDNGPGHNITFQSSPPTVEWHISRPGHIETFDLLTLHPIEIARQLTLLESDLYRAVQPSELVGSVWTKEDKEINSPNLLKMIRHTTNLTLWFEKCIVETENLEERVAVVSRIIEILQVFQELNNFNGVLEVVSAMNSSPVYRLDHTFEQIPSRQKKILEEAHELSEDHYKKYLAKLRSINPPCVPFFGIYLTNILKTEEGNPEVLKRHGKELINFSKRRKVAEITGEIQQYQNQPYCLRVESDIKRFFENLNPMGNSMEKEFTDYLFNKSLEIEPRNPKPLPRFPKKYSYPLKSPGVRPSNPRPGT
# test_details: KRAS::SOS1 AlphaScreen Binding Assay
# stated_conditions: SOS1 (564-1049), KRAS G12D (1-169), GDP
attribute_measured: IC50

[[record]]
compound = "Cc1nc(N[C@H](C)c2cccc(C(F)F)c2F)c2cn(N3CCOC3=O)c(=O)cc2n1 [Example 39]"
attribute_measured = "IC50"
reported_value = "≤ 15 nM"

[[record]]
compound = "Cc1nc(N[C@H](C)c2cccc(C(F)F)c2F)c2cn(N3CCOCC3)c(=O)c(-c3ccccn3)c2n1 [Example 74]"
attribute_measured = "IC50"
reported_value = "≤ 15 nM"

[[record]]
compound = "Cc1nc(N[C@H](C)c2cccc(C(F)F)c2F)c2cn(N3CCOCC3)c(=O)c(-c3ccc[nH]c3=O)c2n1 [Example 51]"
attribute_measured = "IC50"
reported_value = "≤ 15 nM"

[[record]]
compound = "CC(=O)N1CCN(n2cc3c(N[C@H](C)c4cccc(C(F)F)c4F)nc(C)nc3cc2=O)CC1 [Example 11]"
attribute_measured = "IC50"
reported_value = "≤ 15 nM"

[[record]]
compound = "Cc1nc(N[C@H](C)c2cccc(C(F)F)c2F)c2cn(N3CCN(C(=O)CC#N)CC3)c(=O)cc2n1 [Example 14]"
attribute_measured = "IC50"
reported_value = "≤ 15 nM"

[[record]]
compound = "Cc1nc(N[C@H](C)c2cccc(C(F)F)c2F)c2cn(N3CCNCC3)c(=O)cc2n1 [Example 10]"
attribute_measured = "IC50"
reported_value = "≤ 15 nM"

[[record]]
compound = "CNCc1ccccc1-c1csc([C@@H](C)Nc2nc(C)nc3cc(=O)n(N4CCOCC4)cc23)c1 [Example 77]"
attribute_measured = "IC50"
reported_value = "≤ 15 nM"

[[record]]
compound = "Cc1nc(N[C@H](C)c2cccc(C(F)F)c2F)c2cn(N3CCOCC3)c(=O)cc2n1 [Example 1]"
attribute_measured = "IC50"
reported_value = "≤ 15 nM"

[[record]]
compound = "Cc1nc(N[C@H](C)c2cccc(C(F)F)c2F)c2cn(N3CCCC3)c(=O)cc2n1 [Example 35]"
attribute_measured = "IC50"
reported_value = "≤ 15 nM"

[[record]]
compound = "Cc1nc(N[C@H](C)c2cccc(C(F)F)c2F)c2cn(N3CCOCC3)c(=O)c(-c3ccc(P(C)(C)=O)nc3)c2n1 [Example 71]"
attribute_measured = "IC50"
reported_value = "≤ 15 nM"

[[record]]
compound = "Cc1nc(N[C@H](C)c2cccc(C(F)F)c2F)c2cn(N3CCOCC3)c(=O)c(-c3ccc(S(C)(=O)=O)nc3)c2n1 [Example 61]"
attribute_measured = "IC50"
reported_value = "≤ 15 nM"

[[record]]
compound = "Cc1nc(N[C@H](C)c2cc(N)cc(C(F)(F)F)c2)c2cn(N3CCOCC3)c(=O)cc2n1 [Example 16]"
attribute_measured = "IC50"
reported_value = "15 to 150 nM"

[[record]]
compound = "Cc1nc(N[C@H](C)c2cccc(C(F)F)c2F)c2cn(-n3ccnc3)c(=O)c(F)c2n1 [Example 86]"
attribute_measured = "IC50"
reported_value = "15 to 150 nM"

[[record]]
compound = "Cc1nc(N[C@H](C)c2cccc(C(F)F)c2F)c2cn(N3CCOCC3)c(=O)c(-c3ccn[nH]3)c2n1 [Example 81]"
attribute_measured = "IC50"
reported_value = "≤ 15 nM"

[[record]]
compound = "Cc1nc(N[C@H](C)c2cccc(C(F)F)c2F)c2cn(-n3cnnc3)c(=O)c(F)c2n1 [Example 87]"
attribute_measured = "IC50"
reported_value = "150 to 1000 nM"

